Ref: paper PMC10397247

target.of.assay: T1, 4H3343-AA
T1 chain: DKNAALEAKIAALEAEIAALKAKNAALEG
measurement.notes: two-hybrid library CCmax;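 also: natural log of median RNA to DNA barcode read ratio; higher means stronger binding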
study.conditions: mean of both orientations
Classify as follows. Reported interaction score greater than or equal to -1: T. Reported interaction score below: F.

Incoming: Reported interaction score at or above -1? DKIAALKAKIAALKAEIAALEAENAALEG [4H2883-AA]
Outgoing: T

Incoming: Reported interaction score at or above -1? DKIAALKAEIAALKAENAALEAEIAALKG [4H2642-AA]
Outgoing: F

Incoming: Reported interaction score at or above -1? DKIAALKAEIAALEAKNAALKAEIAALEG [4H2617-AA]
Outgoing: F

Incoming: Reported interaction score at or above -1? DENAALKAEIAALEAEIAALKAKNAALKG [4H1552-AA]
Outgoing: T

Incoming: Reported interaction score at or above -1? DKIAALKAENAALKAEIAALEAEIAALKG [4H2754-AA]
Outgoing: F

Incoming: Reported interaction score at or above -1? DENAALKAKIAALKAEIAALKAENAALEG [4H1867-AA]
Outgoing: T

Incoming: Reported interaction score at or above -1? DKIAALEAENAALKAKIAALEAKIAALEG [4H2277-AA]
Outgoing: F
